assay: Flash point of fragrance ingredients; assay type: physicochemical
measure name: Flash Point (°C)
Give the number; °C is assumed, so skip it.

O=Cc1ccc2c(c1)OCO2 : 110
CC=Cc1ccc(OC)cc1 : 110
CCCc1ccc(O)c(OC)c1 [Dihydro Eugenol] : 100

The recorded Flash Point for entry CC1C(C)(C)C2=C(C(=O)CCC2)C1(C)C (stereo not drawn) equals 94

The recorded Flash Point for entry CC(=O)OC(C)(C)C1CC=C(C)CC1 (stereo not drawn) [Terpinyl Acetate] equals 100

The recorded Flash Point for entry C=CC(C)CCCC(C)(C)O (stereo not drawn) [Dihydro Myrcenol] equals 76

The recorded Flash Point for entry CC(=O)OCc1ccccc1 [Benzyl Acetate] equals 91

The recorded Flash Point for entry `CC(C)CCCC(C)(C)O` equals 63

The recorded Flash Point for entry CC(=O)C(C)=CC1C(C)=CCCC1(C)C (stereo not drawn) equals 110
